PROTOCOL: Particle size and PDI by dynamic light scattering
Type: physicochemical
CONDITION_DETAILS: Table 2; polydispersity value
PDI values by entry
MEASURE_NAME: PDI

molecule="CCCCCCCCCCCCNC(=O)C(O)CN(CC(=O)NCCCN1CCN(CCCNC(=O)CN(CC(O)C(=O)NCCCCCCCCCCCC)CC(O)C(=O)NCCCCCCCCCCCC)CC1)CC(O)C(=O)NCCCCCCCCCCCC (centres unmarked) [Compound L0193]" measure_name=PDI reported_measurement="0.11 ± 0.02"
molecule="CCCCCCCCCCCCNC(=O)C(O)CN(CCCN1CCN(CCCN(CC(O)C(=O)NCCCCCCCCCCCC)CC(O)C(=O)NCCCCCCCCCCCC)CC1)CC(O)C(=O)NCCCCCCCCCCCC (centres unmarked) [Compound L0190]" measure_name=PDI reported_measurement="0.20 ± 0.01"
molecule="CCCCCCCCCCCCNC(=O)C(O)CN1CCN(CCN(CC(O)C(=O)NCCCCCCCCCCCC)CC(O)C(=O)NCCCCCCCCCCCC)CC1 (centres unmarked) [Compound L0181]" measure_name=PDI reported_measurement="0.16 ± 0.02"
molecule="CCCCCCCCCCCOC(=O)CCCCCN(CCO)CCCCCCCC(=O)OC(CCCCCCCC)CCCCCCCC [SM-102, reference compound]" measure_name=PDI reported_measurement="0.11 ± 0.01"
molecule="CCCCCCC(CCCCCC)C(=O)OCCCCOC(=O)C(O)CN(CCCN1CCN(CCCN(CC(O)C(=O)OCCCCOC(=O)C(CCCCCC)CCCCCC)CC(O)C(=O)OCCCCOC(=O)C(CCCCCC)CCCCCC)CC1)CC(O)C(=O)OCCCCOC(=O)C(CCCCCC)CCCCCC (centres unmarked) [Compound L0196]" measure_name=PDI reported_measurement="0.11 ± 0.01"

---

PROTOCOL: Particle size and PDI by dynamic light scattering
Type: physicochemical
CONDITION_DETAILS: Table 4
# Lookup of reported PDI keyed by entry
MEASURE_NAME: PDI

compound="CCCCCCCCCCCCNC(=O)C(O)CN(CC(O)C(=O)NCCCCCCCCCCCC)[C@H]1CC[C@@H](N(CC(O)C(=O)NCCCCCCCCCCCC)CC(O)C(=O)NCCCCCCCCCCCC)CC1 (some centres unmarked)" reported_measurement=0.18
compound="CCCCCCCCCCNC(=O)C(O)CN[C@H]1CC[C@@H](N(CC(O)C(=O)NCCCCCCCCCC)CC(O)C(=O)NCCCCCCCCCC)CC1 (some centres unmarked)" reported_measurement=0.09
compound="CCCCCCCCCCNC(=O)C(O)CN(CC(O)C(=O)NCCCCCCCCCC)[C@H]1CC[C@@H](N(CC(O)C(=O)NCCCCCCCCCC)CC(O)C(=O)NCCCCCCCCCC)CC1 (some centres unmarked)" reported_measurement=0.08
compound="CCCCCCCCCCNC(=O)C(O)CN(Cc1ccc(CN(CC(O)C(=O)NCCCCCCCCCC)CC(O)C(=O)NCCCCCCCCCC)cc1)CC(O)C(=O)NCCCCCCCCCC (centres unmarked)" reported_measurement=0.11
compound="CCCC/C=C\\CCOCOCCCCOC(=O)C(O)CN(CCCN1CCN(CCCN(CC(O)C(=O)OCCCCOCOCC/C=C\\CCCC)CC(O)C(=O)OCCCCOCOCC/C=C\\CCCC)CC1)CC(O)C(=O)OCCCCOCOCC/C=C\\CCCC (centres unmarked)" reported_measurement=0.09

---

Entries and their PDI values follow.
PROTOCOL: Particle size and PDI by dynamic light scattering
Assay type: physicochemical
CONDITION_DETAILS: Table 4
MEASURE_NAME: PDI

compound="CCCCCCCCCCCCNC(=O)C(O)CN(CC(O)C(=O)NCCCCCCCCCCCC)[C@H]1CC[C@H](N(CC(O)C(=O)NCCCCCCCCCCCC)CC(O)C(=O)NCCCCCCCCCCCC)CC1 (stereo partly shown)" measure_name=PDI reported_measurement=0.21
compound="CCCCCCCCCCNC(=O)C(O)CN(CC(O)C(=O)NCCCCCCCCCC)[C@H]1CC[C@H](N(CC(O)C(=O)NCCCCCCCCCC)CC(O)C(=O)NCCCCCCCCCC)CC1 (stereo partly shown)" measure_name=PDI reported_measurement=0.07
compound="CCCCCCCCCCNC(=O)C(O)CN[C@H]1CC[C@H](N(CC(O)C(=O)NCCCCCCCCCC)CC(O)C(=O)NCCCCCCCCCC)CC1 (stereo partly shown)" measure_name=PDI reported_measurement=0.09
compound="CC/C=C\\CCOCOCCCCCCOC(=O)C(O)CN1CCN(CCN(CC(O)C(=O)OCCCCCCOCOCC/C=C\\CC)CC(O)C(=O)OCCCCCCOCOCC/C=C\\CC)CC1 (stereo not shown)" measure_name=PDI reported_measurement=0.07

---

PROTOCOL: Particle size and PDI by dynamic light scattering
Type: physicochemical
CONDITION_DETAILS: Table 4
Particle size (nm) overview
MEASURE_NAME: Particle size (nm)

molecule="CCCCCCCCCCNC(=O)C(O)CN(CC(O)C(=O)NCCCCCCCCCC)[C@H]1CC[C@H](N(CC(O)C(=O)NCCCCCCCCCC)CC(O)C(=O)NCCCCCCCCCC)CC1 (stereo partly shown) [Compound L0218]" measure_name="Particle size (nm)" reported_measurement=109.43
molecule="CCCCCCCC/C=C\\CCCCCCCCNC(=O)C(O)CN1CCN(CCN(CC(O)C(=O)NCCCCCCCC/C=C\\CCCCCCCC)CC(O)C(=O)NCCCCCCCC/C=C\\CCCCCCCC)CC1 (stereo not shown) [Compound L0223]" measure_name="Particle size (nm)" reported_measurement=98.88
molecule="CCCCCCCCCCCCNC(=O)C(O)CN(CC(O)C(=O)NCCCCCCCCCCCC)[C@H]1CC[C@@H](N(CC(O)C(=O)NCCCCCCCCCCCC)CC(O)C(=O)NCCCCCCCCCCCC)CC1 (stereo partly shown) [Compound L0213]" measure_name="Particle size (nm)" reported_measurement=174.43
molecule="CCCCCCCCCCCCOC(=O)C(O)CN[C@H]1CC[C@@H](N(CC(O)C(=O)OCCCCCCCCCCCC)CC(O)C(=O)OCCCCCCCCCCCC)CC1 (stereo partly shown) [Compound L0212]" measure_name="Particle size (nm)" reported_measurement=95.87
molecule="CCCCCCCC/C=C\\CCCCCCCCNC(=O)C(O)CN(CCCN1CCN(CCCN(CC(O)C(=O)NCCCCCCCC/C=C\\CCCCCCCC)CC(O)C(=O)NCCCCCCCC/C=C\\CCCCCCCC)CC1)CC(O)C(=O)NCCCCCCCC/C=C\\CCCCCCCC (stereo not shown) [Compound L0229]" measure_name="Particle size (nm)" reported_measurement=179.07
molecule="CCCCCCCCCCCCOC(=O)C(O)CN(Cc1ccc(CN(CC(O)C(=O)OCCCCCCCCCCCC)CC(O)C(=O)OCCCCCCCCCCCC)cc1)CC(O)C(=O)OCCCCCCCCCCCC (stereo not shown) [Compound L0207]" measure_name="Particle size (nm)" reported_measurement=172.13
molecule="CC/C=C\\CCOCOCCCCCCOC(=O)C(O)CN1CCN(CCN(CC(O)C(=O)OCCCCCCOCOCC/C=C\\CC)CC(O)C(=O)OCCCCCCOCOCC/C=C\\CC)CC1 (stereo not shown) [Compound L0221]" measure_name="Particle size (nm)" reported_measurement=140.97

---

PROTOCOL: Particle size and PDI by dynamic light scattering
Assay type: physicochemical
CONDITION_DETAILS: Table 4
Form field: Particle size (nm) (one value per entry).
MEASURE_NAME: Particle size (nm)

compound="CC/C=C\\CCOCOCCCCCCOC(=O)C(O)CN(CCCN1CCN(CCCN(CC(O)C(=O)OCCCCCCOCOCC/C=C\\CC)CC(O)C(=O)OCCCCCCOCOCC/C=C\\CC)CC1)CC(O)C(=O)OCCCCCCOCOCC/C=C\\CC (centres unmarked) [Compound L0225]" measure_name="Particle size (nm)" reported_measurement=117.87
compound="CCCCCCCCCCNC(=O)C(O)CN(Cc1ccc(CN(CC(O)C(=O)NCCCCCCCCCC)CC(O)C(=O)NCCCCCCCCCC)cc1)CC(O)C(=O)NCCCCCCCCCC (centres unmarked) [Compound L0215]" measure_name="Particle size (nm)" reported_measurement=119.27
compound="CCCCCCCCCCNC(=O)C(O)CN[C@H]1CC[C@H](N(CC(O)C(=O)NCCCCCCCCCC)CC(O)C(=O)NCCCCCCCCCC)CC1 (some centres unmarked) [Compound L0219]" measure_name="Particle size (nm)" reported_measurement=102.47
compound="CCCC/C=C\\CCOCOCCCCOC(=O)C(O)CN1CCN(CCN(CC(O)C(=O)OCCCCOCOCC/C=C\\CCCC)CC(O)C(=O)OCCCCOCOCC/C=C\\CCCC)CC1 (centres unmarked) [Compound L0222]" measure_name="Particle size (nm)" reported_measurement=133.83
compound="CCCCCCCCCCNC(=O)C(O)CN(CC(O)C(=O)NCCCCCCCCCC)[C@H]1CC[C@@H](N(CC(O)C(=O)NCCCCCCCCCC)CC(O)C(=O)NCCCCCCCCCC)CC1 (some centres unmarked) [Compound L0216]" measure_name="Particle size (nm)" reported_measurement=117.97
compound="CCCCCCCCCCCCNC(=O)C(O)CN(Cc1ccc(CN(CC(O)C(=O)NCCCCCCCCCCCC)CC(O)C(=O)NCCCCCCCCCCCC)cc1)CC(O)C(=O)NCCCCCCCCCCCC (centres unmarked) [Compound L0208]" measure_name="Particle size (nm)" reported_measurement=176.67
compound="CCCC/C=C\\CCOCOCCCCOC(=O)C(O)CN(CCCN1CCN(CCCN(CC(O)C(=O)OCCCCOCOCC/C=C\\CCCC)CC(O)C(=O)OCCCCOCOCC/C=C\\CCCC)CC1)CC(O)C(=O)OCCCCOCOCC/C=C\\CCCC (centres unmarked) [Compound L0226]" measure_name="Particle size (nm)" reported_measurement=115.53
compound="CCCCCCCCCCOC(=O)C(O)CN(Cc1ccc(CN(CC(O)C(=O)OCCCCCCCCCC)CC(O)C(=O)OCCCCCCCCCC)cc1)CC(O)C(=O)OCCCCCCCCCC (centres unmarked) [Compound L0211]" measure_name="Particle size (nm)" reported_measurement=134.47
compound="CCCCCCCCCCCCNC(=O)C(O)CN(CC(O)C(=O)NCCCCCCCCCCCC)[C@H]1CC[C@H](N(CC(O)C(=O)NCCCCCCCCCCCC)CC(O)C(=O)NCCCCCCCCCCCC)CC1 (some centres unmarked) [Compound L0214]" measure_name="Particle size (nm)" reported_measurement=177.07
compound="CCCCCCCCCCNC(=O)C(O)CN[C@H]1CC[C@@H](N(CC(O)C(=O)NCCCCCCCCCC)CC(O)C(=O)NCCCCCCCCCC)CC1 (some centres unmarked) [Compound L0217]" measure_name="Particle size (nm)" reported_measurement=87.05
compound="CCCCCCOC(C)OCCCCCCOC(=O)C(O)CN1CCN(CCN(CC(O)C(=O)OCCCCCCOC(C)OCCCCCC)CC(O)C(=O)OCCCCCCOC(C)OCCCCCC)CC1 (centres unmarked) [Compound L0220]" measure_name="Particle size (nm)" reported_measurement=106.97
